Let's look at some binders and their measured kon.
Molecular target: BoNT/A HC, recombinant binding domain (C-terminal domain of the heavy chain) of botulinum neurotoxin type A (Clostridium botulinum, UniProt P0DPI0 860-1296)
Assay: SPR BIAcore, Hc on chip, scFv in flow

binder | unitAnnotation | kon
scFv S25 (scFv) scFv: QVKLQQSGAELVRPGASVKLSCKASGYSLTSYWMNWVKQRPQGGLEWIGNIHPSDSDTRFNQKFEDKATLTVDTSSSTAYMQLSSPTSEDSAVYYCARGLYNGFWYFDVWGQGTTVTVSSGGGGSGGGGSGGGGSDIELTQSPALMAASPGEKVIITCSVSSSISSSNLHWYQQKSGTSPKPWIYGTSNLASQVPVRFSGSGSGTSYSLTISSMEAEDAATYYCQQWSSYPLTFGAGTKLEIKR | M⁻¹ s⁻¹ | 11000
scFv C25 (scFv) scFv: QVQLQESGGGLVKPGGSLKLSCAASGFTFSDYYMYWVRQTPEKRLEWVATISDGGSYTYYPDSVKGRFTISRDNAKNNLYLQMSSLKSEDTAMYYCSRYRYDDAMDYWGQGTTVTVSSGGGGSGGGGSGGGGSDIELTQSPASLAVSLGQRATISCRASESVDSYGHSFMQWYQQKPGQPPKLLIYRASNLEPGIPARFSGSGSGTDFTLTINPVEADDVATYYCQQSNEDPFTFGSGTKLEIKR | M⁻¹ s⁻¹ | 300000
scFv C39 (scFv) scFv: QVQLQESGGGSVKPGGSLKLSCAASGFTFSDYYMSWVRQTPEKRLEWVATISDGGSYTYYPDSVKGRFTISRDNAKNNLYLQMSSLKSEDTAIYYCVRYRYDEGLDYWGQGTTVTVSSGGGGSGGGGSGGGGSDIELTQSPASLAVSLGRRATISCRASESVDSYGHSFMHWYQQKPGQPPKLLIYLASNLESGVPARFSGSGSRTDFTLTIDPVEADDAATYYCQQNNEDPYTFGGGTKLEIKR | M⁻¹ s⁻¹ | 140000
scFv 1F3 (scFv) scFv: EVQLQQSGARLVKPGASVKLSCKASGYTFTSFWMHWVKQRPGRGLEWIGRLDPNSGETKYNEKFKSKATLTVDKPSSTAYMELSSLTSEDSAVYYCAREAYGYWNFDVWGTGTTVTVSSGGGGSGGGGSGGGGSDIELTQSPASMSASPGEKVTMTCRATSSVSSSYLHWYQQKSGASPKLWIYSASNLASGVPSRFSGSGSGTSYLSTISSVEAEDAATYYCQQYIGYPYTFGGGTKLEIKR | M⁻¹ s⁻¹ | 920000
